# Tested on: MIA PaCa-2 pancreatic cell carcinoma
# protocol.notes: Relative colony forming efficiency after antisense treatment (Table 13)
# Format: cell-based, human
# test.settings: 0.2 μM antisense oligodeoxyribonucleotide phosphorothioate; MIA PaCa-2 cells; averages of 2-8 determinations
Strand notation (5' to 3'): a small letter for the sugar, then the base; units joined by * are phosphorothioate-linked, units joined directly phosphodiester-linked; [ ] holds rarer units or linkages, { } end groups; capitals alone tell only the bases. d = 2'-deoxy (DNA)
Respond with 1 for Reduced relative colony forming efficiency, expressed as % inhibition, MIA PaCa-2 values of 60% and above, 0 for values below.

# query.sequence, assigned.category
data = [
    ("CGGGTCCGTGATGGGCGCGA (dC*dG*dG*dG*dT*dC*dC*dG*dT*dG*dA*dT*dG*dG*dG*dC*dG*dC*dG*dA; antisense) [AS-II-217-20]", 1),
    ("CGGCGGCGTGTT (dC*dG*dG*dC*dG*dG*dC*dG*dT*dG*dT*dT) [AS-II-288-12]", 0),
    ("ATCGCCGCCGTG (DNA, all phosphorothioate, methylation of C not given here) [AS-II-1775-12]", 0),
    ("AAACGGCTTCTCACACATAT (antisense; DNA, all phosphorothioate, methylation of C not given here) [AS-II-2151-20]", 1),
    ("TTAGTGGTCAGGAGAATGTA (antisense; DNA, all phosphorothioate, methylation of C not given here) [AS-II-1819-20]", 0),
]

Decide: is the reported value of Reduced relative colony forming efficiency, expressed as % inhibition, MIA PaCa-2 for TCAGGCAAGCAAAATCACAG (DNA, all phosphorothioate, methylation of C not given here) [AS-II-1001-20] equal to or greater than 60%?
1

Decide: is the reported value of Reduced relative colony forming efficiency, expressed as % inhibition, MIA PaCa-2 for AAGCGGCGGGGGTTTTCTCT (dA*dA*dG*dC*dG*dG*dC*dG*dG*dG*dG*dG*dT*dT*dT*dT*dC*dT*dC*dT; antisense) [AS-II-414-20] equal to or greater than 60%?
0

Decide: is the reported value of Reduced relative colony forming efficiency, expressed as % inhibition, MIA PaCa-2 for TCCTCGCGGTCTTGCTGGCC (dT*dC*dC*dT*dC*dG*dC*dG*dG*dT*dC*dT*dT*dG*dC*dT*dG*dG*dC*dC; antisense) [AS-II-323-20] equal to or greater than 60%?
1

Decide: is the reported value of Reduced relative colony forming efficiency, expressed as % inhibition, MIA PaCa-2 for GAGAAATAAAATGAAACGGC (antisense; DNA, all phosphorothioate, methylation of C not given here) [AS-II-2164-20] equal to or greater than 60%?
1

Decide: is the reported value of Reduced relative colony forming efficiency, expressed as % inhibition, MIA PaCa-2 for GCACGGGCGACC (antisense dG*dC*dA*dC*dG*dG*dG*dC*dG*dA*dC*dC) [AS-II-127-12] equal to or greater than 60%?
0

Cited source: patent US7405205B2
